- METHOD: yeast display, Sf9 membrane polyspecificity reagent, FACS + sequencing; frameworks hold sequencing errors
OBSERVED PROPERTY: polyreactivity (PSR sort gate)

{"INPUT SEQUENCE": "QVQLVESGGGLVQAGGSLRLSCAASGRIFEIYAMGWYRQAPGTERELVAPISWRGVSTYYADSVKGRFTISRDNAKNTVYVQMNSLKAEDTAVYYCGPELGWGGFYKDGDASQFDYWGQGTQVTVSS", "VALUE MEASURED": "low polyreactivity"}
{"INPUT SEQUENCE": "QVQLVESGGGLVQAGGSLRISCAASGSTFSYYAMGWYRQAPGKERELVADISWSGGSTYYADSVKGRFTISRDNAKNTVYLQMNSQKPEDTAVFYCAARGYVRWYNRYDYWGQGTQVTVSS", "VALUE MEASURED": "low polyreactivity"}

* * *

- METHOD: yeast display, Sf9 membrane polyspecificity reagent, FACS + sequencing; frameworks hold sequencing errors

{"INPUT SEQUENCE": "QVQLVESGGGLVQAGGSRRLSCAPSGKIFGSNAMGSYRQAPGKERELVAAISKSCGRTYYADSVKGRFTISRDNAKNTVYLQMNCLKPEDSAVYYCGAYDGYYEFDYWGQGTQVPVSS", "polyreactivity (PSR sort gate)": "low polyreactivity"}
{"INPUT SEQUENCE": "QVQLVESGGGLLQAGGSLRLSCADSGYTFRAYALGWYRQAPGKERELVAAISRGGSTNYADSVKGRFTISRDNAKNTVYLQMYSLKPEDTAVYYCNTAYIVWYSSSYGAYYSGAFDYWGQGTLVTVSS", "polyreactivity (PSR sort gate)": "high polyreactivity"}
{"INPUT SEQUENCE": "QVQLVESGGGLVQAGGSLRLSCAASGRIYAMGWYRQAPGKERELVAAISRGGSTYYADSVKGRFTISRDNAKNTVYLQMNSLKPEDTAVYYCARRYASTGYDYWGQCTQVTVSS", "polyreactivity (PSR sort gate)": "high polyreactivity"}
{"INPUT SEQUENCE": "QVQLVESGGGLVQAGGSLRLSCDASGRHFKRYDMGWYRQAPGKERELVAAISWSGTSTHYADSVKGRLTISRDNAKNTVYLQMNSLKPEDTAVYYCAAYWFNTSYPGRYDYWGQGTQVTVSS", "polyreactivity (PSR sort gate)": "high polyreactivity"}
{"INPUT SEQUENCE": "QVQLVESGGGLVQAGGSLRLSCAASGLTFGYYAMGWYRQAPGKERELVAAISVSGSTYYADSVKGRFTISRDNAKNTVYLQMNSLKPEDTAVYYCNRAIGYRKELDYWGQGTQVTVSS", "polyreactivity (PSR sort gate)": "high polyreactivity"}
{"INPUT SEQUENCE": "QVQLVESGGGLVQAGGSLRLSCAASGFIIYSYAMGWYRQAPGKERELVAVISSRGGTTYYADSVKGRFTISRDNAKNTVYLQMNSLKPEDTAVYYCARDDYGTLVKLYVRCFNYWGQGTQVTVSS", "polyreactivity (PSR sort gate)": "low polyreactivity"}
{"INPUT SEQUENCE": "QVQLVESGGGLVQAGGSLRLSCAASGRTFEHYVMGWYRQAPGKERELVAAISNSGDTTFYADSVKGRFTISRDNAKNTVYFQMNSLKPEDTAVYYCNADSYWHWGEWLYAPYDYWGQGTQVTVSS", "polyreactivity (PSR sort gate)": "low polyreactivity"}
{"INPUT SEQUENCE": "QVQLVESGGGLVQAGGSLRLSCAASGSIVPVYAMGWYRQAPGKEREFVAGINTIGGSTYYADSVKGRFTISRDNAKNTVYLQMNSLKPEDTAVYYCAATQYWNMYSWGQGTQVTVSS", "polyreactivity (PSR sort gate)": "low polyreactivity"}
{"INPUT SEQUENCE": "QVHLVESGGGLVQAGGSLRLSCAASGLIIRYYAMGWYRQAPWKERELVAAITSRGGSTYYADSVKGRFKISRDNAKNTVYLQMNSLKPEDTAVYSCAAGLIFVSRFYVPYDYWGQGTQVTVSS", "polyreactivity (PSR sort gate)": "high polyreactivity"}
{"INPUT SEQUENCE": "QVQLVESGGGLVQAGGSLRLSCAASGNIFPIYPMGWYRQAPGKERELVASIYRGGTTYYADSVKGRFTISRDNAKNTVYLQMNSLKPEETAVYYCAVYSPRLRRVHTRGYWGQGTQVTVSS", "polyreactivity (PSR sort gate)": "high polyreactivity"}
{"INPUT SEQUENCE": "QVQLVESGGGLVQAGGSLRLTCASSGITFGSYAMGWYTQAPGKERELVAAITWRGGSTFYADSVKGRFTISRDNAKITVYLQMNSLKPEDTAVYYCAATLTKYLPRYYWGHGTQVTVSS", "polyreactivity (PSR sort gate)": "low polyreactivity"}

* * *

- METHOD: yeast display, Sf9 membrane polyspecificity reagent, FACS + sequencing; frameworks hold sequencing errors

{"INPUT SEQUENCE": "QVQLVESGGGLVQAGGSLRLSCAASGHTLAVKAKGWYRQAPGKERELVAAITRSGVTTSYADSVKGRFTISRDNAQNTFYLQLHSVKPEDTAVSYCAAQLDASYLTGGWRRHYNYWGQGTQVTVSS", "polyreactivity (PSR sort gate)": "low polyreactivity"}
{"INPUT SEQUENCE": "QVQLVESGGGLVQAGGSLRLICAASGRTFYVNAMGWYRQAPGKERELVATITDRGGRTYYADSVKGRFTISRDNAKNTVYLQMNSLKPEDTAVYYCAATRWYEVDYWGQGTQVTVSS", "polyreactivity (PSR sort gate)": "low polyreactivity"}
{"INPUT SEQUENCE": "QVQLVESGGGLVQAGGSLRLSCAASGSTFGNYAMAWYRQAPGKERELVATISRSGGSTYYADSVKGRFTISRDNAKNTVYLLMNSLKPEDTAVYYCNRRYYTRKPDYNSWGQGTQVTVSS", "polyreactivity (PSR sort gate)": "high polyreactivity"}
{"INPUT SEQUENCE": "QVQLVESGGGLVQAGGSLRLSCAASGSTVDWNAMGWYRQAPGKERELVAGITFRSGSTYYADSVKGRFTISRDNAKNTVYLQMNSLKPEDTAVYYCNVKLYYYYFRMYYWGQGTQVTVSS", "polyreactivity (PSR sort gate)": "low polyreactivity"}
{"INPUT SEQUENCE": "QVQLVESGGGLVQAGGSLRLSCAASGFIFAFNAMGWYRQAPGKEREFVASITGSSDSTYYADSVKGRFTISRDNAKNTVYLQMNSLKPEDTAVYYCAADPASSYGKYSYYYWGQGTQVTVSS", "polyreactivity (PSR sort gate)": "high polyreactivity"}

* * *

- METHOD: yeast display, Sf9 membrane polyspecificity reagent, FACS + sequencing; frameworks hold sequencing errors

{"INPUT SEQUENCE": "QVQLVESGGGLVQAGGSLRLSCAASGFILPIYAMGWYRQAPGKEREFVAAITWTGGSTYYADSVKGRFTISRDTAKNNVFLQIHSLKPEDTAVYYCAKRYYLRGYGRYYYWGQGTQVTVSS", "polyreactivity (PSR sort gate)": "high polyreactivity"}
{"INPUT SEQUENCE": "QVQLVESGGGLVQAGGSLRLSCAASGFTSHSYAMGWYRKAPGKERELVAAINGDGGSTYYADSVKGRFTISRDNAKNTLYLQMNSLKPEDTAVYYCAAETAYWYYWGQGSQVTVSS", "polyreactivity (PSR sort gate)": "high polyreactivity"}
{"INPUT SEQUENCE": "QVQLVESGGGLVQAGGSLRLSCAASGFTFTWYAMGWYRQAPGKERELVATISRSGGRTYYADSVKGRFTISRDNAKNTVYLQLNSLKPEDTAVYYCAADTRNYPRYDYWGQGTQVTVSS", "polyreactivity (PSR sort gate)": "high polyreactivity"}
{"INPUT SEQUENCE": "QVKLVESGGGLVQAGGSLRLSFAASGYTFGSNAMGWYRQAPGKERELVADIDCSSGNTYYADSVKGRFTISRDNAKNTVYLQMNSLKPEDTAVYYCAAELHIYYSWYWYDYWGQGTQVTVSS", "polyreactivity (PSR sort gate)": "high polyreactivity"}
{"INPUT SEQUENCE": "QVQLVESGGGLVQAGGSLRLSCAASGSIVHGYTMGWYRQEPGKERELVAAINSGDGSTYADSVKGRFPISRDNAKNTVYLQMNSLKPEDTAVYYCAADDSTLADGGDYWGQGTQVTVSS", "polyreactivity (PSR sort gate)": "low polyreactivity"}
{"INPUT SEQUENCE": "QVQLVESGVGLVQAGGSLRLSCAASGRIFIKYAMGWYRQAPGKEREFVAAISGRGGSTYYADSVKGRFTISRDNAKNTVYLQMNSLKPEDTAVYYCAKRFFSSGTAAGMYYWGQGTQVTVSS", "polyreactivity (PSR sort gate)": "high polyreactivity"}
{"INPUT SEQUENCE": "QVQLVESGGGLVQAGGSLRLSCAASGIIFGDYAMGWYRQAPGKEMELVAAITWSGGSTYYADSVKGRFTISRDNAKNTVYLQMNSLKPEDTAFYYCNADDDGRVSSTIVEYWGQGTQVTVSS", "polyreactivity (PSR sort gate)": "low polyreactivity"}
{"INPUT SEQUENCE": "QDQHVESGGGLVQAGGSLRLICAASGNTFGWYAMGWYRQAPGKEREFVADISWSGGSTYYADSVKGRFTISRDNAKNTVYLQMNSLKQEDTAVYYCNAVWLYYWHADQYFEYDYWGQGTQVTVSS", "polyreactivity (PSR sort gate)": "high polyreactivity"}
{"INPUT SEQUENCE": "QVQNEESGGGLVQAGGSLRLSCAASGRNFSSYAMGWYRQAPGKERELVAAISRAGGTYYADSVKGRFTISRDNAKNTVYLQMNSMKPEDTAVYYCAARQSVYGLRSDFYYWGQGTQVTVSS", "polyreactivity (PSR sort gate)": "high polyreactivity"}
{"INPUT SEQUENCE": "QVQLVESGGGLVQAGGSLRLSCAASGIIFSWYAMGWYRQAPGKEREFVAAISKSGGRTYYADSVKGRFTISRDNAKNTVYLQMNSLKPEDTAVYYFATGISRDYIYIILRYDYWGQGTQVTVSS", "polyreactivity (PSR sort gate)": "low polyreactivity"}
{"INPUT SEQUENCE": "QVQLVESGGGLVQAGGSLRLSCAASGFTFYVNAMGWYRQAPGKERELVAAITYDGDSTYYADSVKGRFTISRDNAKNTVYLQMNSLKPEDTAVYYRNTVYGPDLDGTEYDYWGQGTQVTVSS", "polyreactivity (PSR sort gate)": "low polyreactivity"}
